Assay: Cytotoxicity against human UO31 cells assessed as growth inhibition at 10 uM after 48 hrs by SRB assay
Assay type: functional
Settings: UO-31, 48 h, read-out: GI
For each entry below, report its inhibition of growth at 10 µM value.
// note: answer is a bare numeric in %

So what does the record say about inhibition of growth at 10 µM for COc1cc(NC(=O)CSc2nc3ccc(Cl)cc3c(=O)n2-c2ccc(F)cc2)cc(OC)c1OC ?
60

Fill in the blank: the reported inhibition of growth at 10 µM of COc1cc(NC(=O)CSc2nc3ccccc3c(=O)n2-c2ccc(F)cc2)cc(OC)c1OC is ____.
42

Which inhibition of growth at 10 µM reading was recorded for the compound COc1cc(NC(=O)CCSc2nc3ccc(C)cc3c(=O)n2-c2ccccc2)cc(OC)c1OC ?
47
